Hey, just so you know, these numbers are from PubChem BioAssay.

assay: compound effects on hepatocellular carcinoma cell viability – HepG2, calcein-AM fluorescence, 48 h, basal, profiling panel (AID 1164); conditions: higher = more signal
Cut-off -0.5 on z-score, inclusive. At or above means 1 (yes); below means 0 (no).

Compound	Qualitative label
CN1C(=O)C2C=CC(C(O)COCc3ccccc3)N(Nc3ccccc3)C2C1=O (stereo not drawn)	1 (yes)
O=C(N1CCOCC1)[C@@]1(CCS(=O)(=O)c2ccccc2)COC(c2ccc(OCCCO)cc2)=N1	1 (yes)
O=C1NC(=O)C2C1C=CC(C(O)c1ccc(-c3ccccc3)s1)N2Nc1ccccn1 (stereo not drawn)	0 (no)
C[C@@]1([C@@H](NC(=O)c2cccs2)c2ccc(-c3ccccc3)cc2)C[C@H]1C1CCCCC1	0 (no)

Prompt line: Answer whether z-score of C[N+](C)(C)CCCCCCNC(=O)[C@H]1C[C@H]2C(=O)N3CCC[C@H]3C(=O)N2[C@H]1c1cccc(OCCO)c1 is greater than or equal to -0.5.
Response line: 0 (no)

Prompt line: Answer whether z-score of C[C@H]1NC(=O)C([C@@H](C)OCc2ccccc2)NC(=O)[C@@]23C(=O)N[C@@H](Cc4ccccc4)C2[C@H](C)[C@@]2(C)O[C@H]2C3/C=C/CC/C=C/CNC1=O (stereo partly drawn) is greater than or equal to -0.5.
Response line: 1 (yes)

Prompt line: Answer whether z-score of COC(=O)c1c(CC[C@@H](CO)NC(=O)N[C@@H](C)Cn2cc(C3(O)CCCC3)nn2)oc(C(C)=O)c1C(=O)OC is greater than or equal to -0.5.
Response line: 1 (yes)

Prompt line: Answer whether z-score of C#CCOC(=O)N[C@H](C=CCCCC)c1ccccc1 is greater than or equal to -0.5.
Response line: 0 (no)

###

molecular target: NADPH oxidase 5 (Homo sapiens) (UniProt Q96PH1); test: compounds shifting NOX5 Amplex Red fluorescence – cell-based, HEK293-NOX5, NOX inhibitor project, primary screen (AID 1161); conditions: HEK293-NOX5, ionomycin, 45 min, higher = more signal
Sequence (Q96PH1 whole entry, looked up): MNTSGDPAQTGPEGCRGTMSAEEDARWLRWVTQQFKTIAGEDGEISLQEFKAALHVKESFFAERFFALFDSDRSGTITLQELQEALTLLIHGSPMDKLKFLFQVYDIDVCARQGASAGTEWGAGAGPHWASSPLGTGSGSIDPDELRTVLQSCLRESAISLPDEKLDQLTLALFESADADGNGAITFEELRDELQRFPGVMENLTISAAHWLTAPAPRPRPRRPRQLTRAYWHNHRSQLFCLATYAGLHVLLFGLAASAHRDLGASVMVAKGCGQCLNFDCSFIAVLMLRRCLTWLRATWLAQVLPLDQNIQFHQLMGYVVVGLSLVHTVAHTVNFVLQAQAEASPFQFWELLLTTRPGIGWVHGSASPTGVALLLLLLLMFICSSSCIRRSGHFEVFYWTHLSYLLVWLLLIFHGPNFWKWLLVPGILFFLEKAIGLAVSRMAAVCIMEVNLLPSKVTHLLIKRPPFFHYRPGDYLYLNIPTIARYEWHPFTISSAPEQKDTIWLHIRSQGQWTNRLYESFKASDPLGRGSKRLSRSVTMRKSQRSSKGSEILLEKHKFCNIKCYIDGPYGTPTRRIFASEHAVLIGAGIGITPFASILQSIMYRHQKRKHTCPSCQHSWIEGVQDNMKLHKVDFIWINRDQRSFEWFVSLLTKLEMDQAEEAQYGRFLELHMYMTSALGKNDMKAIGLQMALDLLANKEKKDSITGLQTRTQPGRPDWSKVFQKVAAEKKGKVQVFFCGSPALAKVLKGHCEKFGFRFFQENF
Measured parameter: z-score

Compound	z-score
COC(=O)c1c(CC[C@@H](CO)NC(=O)N[C@@H](C)Cn2cc(C3(O)CCCC3)nn2)oc(C(C)=O)c1C(=O)OC	-2.35
CCOC(=O)C[C@H]1[C@H](OC(=O)Cc2ccc3c(c2)OCO3)[C@@H](NC(=O)c2ccccc2)c2cc(OCCCO)ccc2N1C(=O)c1ccc2ccccc2n1	0.27
CCCC=C(CCC)[C@@H](NS(=O)(=O)c1cccc2cccnc12)c1ccc(C(=O)OC)cc1	2
COC(=O)[C@@]1(Cc2ccc(OC)cc2)[C@H]2c3cc(C(=O)N4CCCC4)n(CCc4ccc(O)c(OC)c4)c3C[C@H]2CN1C(=O)c1ccccc1	-2.06
NC(=O)[C@H]1[C@@H]2C(=O)O[C@@H](c3ccccc3)[C@@H](c3ccccc3)N2[C@@H](c2ccc(O)cc2)[C@]12C(=O)Nc1ccc(C#CC3(O)CCCCCC3)cc12	-2.14
COC(=O)C(CC#Cc1ccc2c(c1)[C@]1(C(=O)N2)[C@H](c2ccc(O)cc2)N2[C@H](c3ccccc3)[C@H](c3ccccc3)OC(=O)[C@H]2[C@@H]1C(=O)O)C(=O)OC	1.29
CC(C)[Si](C#C[Si](C(C)C)(C(C)C)C(C)C)(O[C@H](C)c1cn(Cc2cccc(Cl)c2)nn1)C(C)C	-0.162
CC(C)C[C@H]1NC(=O)[C@H](C)NC(=O)[C@@]23C(=O)N[C@@H](Cc4ccccc4)C2[C@H](C)[C@@]2(C)O[C@H]2C3/C=C/C/C=C\CNC1=O (some centres not stated)	-0.234

Prompt line: What does the record list as z-score for CC(C)N1C(=O)c2ccccc2[C@](C)(C(=O)O)[C@@H]1c1ccc(CO)cc1 ?
Response line: -1.27

Prompt line: What does the record list as z-score for CC(C)CN1C(=O)[C@@]2(Cc3ccccc31)c1ccccc1C(=O)N(Cc1ccccc1)[C@H]2c1ccc(CO)cc1 ?
Response line: -0.498

Prompt line: What does the record list as z-score for C[N+](C)(C)CCCCCCNC(=O)[C@@H]1C[C@@H]2C(=O)NCC(=O)N2[C@@H]1c1cccc(OCCO)c1 ?
Response line: -5.67

Prompt line: What does the record list as z-score for CC(C)(C)OC(=O)CC[C@]1(C(=O)O)COC(c2ccc(OCCCO)cc2)=N1 ?
Response line: 0.487

###

system: XIP peptide (Xip251-270) binding; test: XIP fragment 251-270 binding compounds – biochemical, small-molecule microarray, fluorescence 635/667 nm, 0.1 µg/mL protein, primary screen (AID 1182); conditions: fluorescent protein binding, 635 nm, higher = more signal, called active from +8 up or from −8 down
Measured parameter: composite z-score
The response must contain the number and no unit.

CCCC=C(CCC)[C@@H](NS(=O)(=O)c1ccccc1)c1ccc(C(F)(F)F)cc1 -0.363
CCOC(=O)C1=CC[C@@H](c2ccc(N(CC)CC)cc2)N(S(=O)(=O)c2ccc(C)cc2)[C@H]1c1ccc([N+](=O)[O-])cc1 0.326
Cc1ccc(F)cc1S(=O)(=O)N[C@@H]1CCN(C(=O)c2ccc(OC(C)C)cc2)C1 0.615
COC(=O)[C@@]1(Cc2ccc(F)cc2)[C@H]2c3cc(C(=O)N4CCCC4)n(Cc4ccccc4)c3C[C@H]2CN1C(=O)c1ccccc1 0.0584

Please examine the following record next.
Prompt line: What does the record list as composite z-score for NCCCCCCNC(=O)[C@H]1C[C@H]2C(=O)N3CCC[C@H]3C(=O)N2[C@H]1c1ccc(O)cc1 ?
Response line: -0.118

###

assay: resazurin metabolic signal in A549 cells – cell-based, resazurin fluorescence, 24 h, PK04 Diversity Set, profiling panel (AID 1171); settings: A549 viability, higher = more signal, called active from +8 up or from −8 down
z-score vs 0.4: less than gives Met; not less than gives Not met.

Compound	Qualitative label
C=C[C@@H](O)[C@H]1CC(c2ccccc2)=NO1	Not met
C=C(C(=O)CC[C@H](OC(=O)c1cccnc1)c1ccc(OCCO)cc1)C(C)C	Met
O=C1C2C=CC(C(O)c3ccccn3)N(Nc3ccccc3)C2C(=O)N1c1ccccc1 (centres undefined)	Met
O=C(O)[C@@]1(Cc2ccccc2)COC(c2ccc(OCCCO)cc2)=N1	Not met
COC(=O)C(CC#Cc1ccc2c(c1)[C@]1(C(=O)N2)[C@H](c2ccc(O)cc2)N2[C@H](c3ccccc3)[C@H](c3ccccc3)OC(=O)[C@H]2[C@@H]1C(=O)O)C(=O)OC	Met
O=C1c2ccccc2[C@](Cc2ccccc2I)(C(=O)NC2CC2)[C@H](c2ccc(CO)cc2)N1Cc1ccccc1Cl	Not met
COc1ccc([Si](C)(C)[C@@H]2[C@@H](CC(=O)N(CCO)Cc3ccccc3)O[C@]3(C(=O)N(C)c4c(Br)cc(C)cc43)[C@H]2C)cc1	Met
CN(C)CCCCCCNC(=O)[C@@H]1C[C@@H]2C(=O)NCC(=O)N2[C@@H]1c1ccc(O)cc1	Met
CCCc1cc2c(n1Cc1ccc(OC)cc1)C(C)C1CN(C(=O)c3ccccc3)C(C)(C(=O)OC)C21 (centres undefined)	Met
CC(C)CNC(=O)[C@@]1(c2ccc([N+](=O)[O-])cc2)CC(=O)N(C(C)C)[C@@H]1c1ccc(CO)cc1	Not met

Prompt line: Lab log: compare recorded z-score with 0.4; is it strictly lower for [N-]=[N+]=NCc1ccccc1[C@H]1OC(c2ccc(OCCCO)cc2)=N[C@@]1(Cc1ccccc1)C(N)=O ?
Response line: Not met

Prompt line: Lab log: compare recorded z-score with 0.4; is it strictly lower for NC(=O)NCC#Cc1ccc2c(c1)[C@]1(C(=O)N2)[C@H](c2ccc(O)cc2)N2[C@H](c3ccccc3)[C@H](c3ccccc3)OC(=O)[C@H]2[C@@H]1C(N)=O ?
Response line: Met

Prompt line: Lab log: compare recorded z-score with 0.4; is it strictly lower for C=CC[C@]1(C(=O)N2CCOCC2)N=C(c2ccc(OCCCO)cc2)O[C@H]1c1ccccc1CN=[N+]=[N-] ?
Response line: Met

Prompt line: Lab log: compare recorded z-score with 0.4; is it strictly lower for O=C1CSC(c2cccc([N+](=O)[O-])c2)N1c1ccccc1 (centres undefined) ?
Response line: Met

Prompt line: Lab log: compare recorded z-score with 0.4; is it strictly lower for COC(=O)[C@@]1(Cc2ccc(F)cc2)[C@H]2c3cc(C(=O)N4CCCC4)n(Cc4ccccc4)c3C[C@H]2CN1C(=O)c1ccccc1 ?
Response line: Met

Prompt line: Lab log: compare recorded z-score with 0.4; is it strictly lower for COC(=O)C(CC#Cc1ccc2c(c1)[C@]1(C(=O)N2)[C@H](c2ccccc2OCCO)N2[C@H](c3ccccc3)[C@H](c3ccccc3)OC(=O)[C@H]2[C@@H]1C(=O)Nc1nc2ccccc2s1)C(=O)OC ?
Response line: Met

Prompt line: Lab log: compare recorded z-score with 0.4; is it strictly lower for CN(C)C(=O)[C@]1(Cc2ccccc2N=[N+]=[N-])N=C(c2ccc(OCCCO)cc2)O[C@@H]1c1ccccc1CN=[N+]=[N-] ?
Response line: Not met

Prompt line: Lab log: compare recorded z-score with 0.4; is it strictly lower for C=CCC(OC(C)=O)[C@@H]1[C@@H](N(Cc2ccc(-c3ccccc3)cc2)C(=O)c2cccc3ccccc23)c2cc(OCCCO)ccc2N1C(=O)c1ccc2ccccc2n1 (some centres undefined) ?
Response line: Met

Prompt line: Lab log: compare recorded z-score with 0.4; is it strictly lower for C[N+](C)(C)CCCC[C@@H]1NC(=O)[C@@H]2C[C@H](C(=O)O)[C@H](c3cccc(OCCO)c3)N2C1=O ?
Response line: Not met

Prompt line: Lab log: compare recorded z-score with 0.4; is it strictly lower for O=C1O[C@@H](c2ccccc2)[C@@H](c2ccccc2)N2[C@@H](c3ccc(O)cc3)[C@]3(C(=O)Nc4ccc(C#CC5=CCCCC5)cc43)[C@@H](C(=O)Nc3nc4ccccc4s3)[C@H]12 ?
Response line: Met

Prompt line: Lab log: compare recorded z-score with 0.4; is it strictly lower for COc1ccccc1CN1C(=O)c2ccccc2[C@@H](C(=O)NCC(C)C)[C@@H]1c1ccc(CO)cc1 ?
Response line: Met

Prompt line: Lab log: compare recorded z-score with 0.4; is it strictly lower for C=CCC(OC(C)=O)[C@@H]1[C@@H](N(Cc2ccc(-c3ccccc3)cc2)C(=O)Cc2ccc(OC)cc2)c2cc(OCCCO)ccc2N1C(=O)c1ccc(-c2ccccc2)cc1 (some centres undefined) ?
Response line: Not met

Prompt line: Lab log: compare recorded z-score with 0.4; is it strictly lower for C=CCC(OC(C)=O)[C@@H]1[C@@H](N(Cc2cccc3ccccc23)C(=O)c2ccc(C)cc2)c2cc(OCCCO)ccc2N1C(=O)c1ccc2ccccc2c1 (some centres undefined) ?
Response line: Not met

Prompt line: Lab log: compare recorded z-score with 0.4; is it strictly lower for CCOC(=O)C[C@H]1[C@H](OC(=O)Cc2ccc3c(c2)OCO3)[C@@H](NC(=O)c2ccccc2)c2cc(OCCCO)ccc2N1C(=O)c1ccc2ccccc2n1 ?
Response line: Met

Prompt line: Lab log: compare recorded z-score with 0.4; is it strictly lower for [N-]=[N+]=NCc1ccccc1[C@H]1OC(c2ccc(OCCCO)cc2)=N[C@@]1(Cc1ccccc1N=[N+]=[N-])C(=O)N1CCCCC1 ?
Response line: Met

Prompt line: Lab log: compare recorded z-score with 0.4; is it strictly lower for CCOC(=O)C1=CC[C@@H](c2ccccc2)N(S(=O)(=O)c2ccc(C)cc2)[C@H]1C=C(C)C ?
Response line: Not met

Prompt line: Lab log: compare recorded z-score with 0.4; is it strictly lower for COCCOC(=O)N1C(=O)[C@@]2(c3cc(C#CCNC(N)=O)ccc31)[C@H](c1ccc(OCCO)cc1)N1[C@H](c3ccccc3)[C@H](c3ccccc3)OC(=O)[C@H]1[C@@H]2C(=O)N1CCN(c2ncccn2)CC1 ?
Response line: Not met

Prompt line: Lab log: compare recorded z-score with 0.4; is it strictly lower for C/C=C/[C@@H](CCn1cc([C@H](O)c2ccccc2)nn1)[Si](C)(C)c1ccc(OC)cc1 ?
Response line: Met

Prompt line: Lab log: compare recorded z-score with 0.4; is it strictly lower for COCC1=C([C@H](O)CCc2ccccc2)[C@H](CO)[C@@H]2C(=O)N(C)C(=O)[C@@H]2C1 ?
Response line: Met
